Tested on: TF-1 cells
Experiment summary: TF-1 cells viability in vitro in the presence of IL-3 (JAK2 activation)
Type: cell-based
Assay conditions: Homo sapiens, 5 ng/mL IL-3, 72 hours, ATPlite, read-out: JAK2 IL3 (EC50, inhibition of viability of TF-1 cells)
Endpoint: IC50 (nM)
Value expressed in nM; do not type the unit.

Below: 5 compounds and their reported IC50.
CC1(C)CN(c2ccc(C#N)nn2)CC[C@H]1Nc1c(C(N)=O)cnc2cc(-c3ccc(F)nc3)nn12 : 1280
COc1ncc(-c2cc3ncc(C(N)=O)c(N[C@@H]4CCN(c5ccc(C#N)nn5)CC4(C)C)n3n2)cn1 : 2020
COc1ccc(-c2cc3ncc(C(N)=O)c(N[C@@H]4CCN(c5ccc(C#N)nn5)CC4(C)C)n3n2)cc1 : 837
COc1cccc(-c2cc3ncc(C(N)=O)c(N[C@@H]4CCN(c5ccc(C#N)nn5)CC4(C)C)n3n2)n1 : 451
CC1(C)CN(c2ccc(C#N)nn2)CC[C@H]1Nc1c(C(N)=O)cnc2cc(-c3ccc(N4CCOCC4)nc3)nn12 : 283

stdin: // returns reported IC50 for input `CC1(C)CN(c2ccc(C#N)nn2)CC[C@H]1Nc1c(C(N)=O)cnc2cc(-c3ccnc(N4CCOCC4)c3)nn12`
stdout: 1120

---

Test system: TF-1 cells
Experiment summary: TF-1 cells viability in vitro in the presence of IL-3 (JAK2 activation)
Format: cell-based
Assay conditions: Homo sapiens, 5 ng/mL IL-3, 72 hours, ATPlite, read-out: JAK2 IL3 (EC50, inhibition of viability of TF-1 cells)
Endpoint: pIC50
Answer as the number alone; pIC50 is minus log10 of concentration in mol/L.

COc1ccc(-c2cc3ncc(C(N)=O)c(N[C@@H]4CCN(c5ccc(C#N)nn5)CC4(C)C)n3n2)cn1 [Example 4] : 6.15

stdin: // returns reported pIC50 for input CC1(C)CN(c2ccc(C#N)nn2)CC[C@H]1Nc1c(C(N)=O)cnc2cc(-c3ccc(N)nc3)nn12 [Example 6]
stdout: 5.48

stdin: // query: COc1ccc(F)c(-c2cc3ncc(C(N)=O)c(N[C@@H]4CCN(c5ccc(C#N)nn5)CC4(C)C)n3n2)c1 [Example 2]
stdout: 5.92

stdin: // query: Cc1cc(-c2cc3ncc(C(N)=O)c(N[C@@H]4CCN(c5ccc(C#N)nn5)CC4(C)C)n3n2)ccn1 [Example 12]
stdout: 6.44

---

Assayed target: Recombinant kinase JAK1 (Homo sapiens (Human))
Sequence (P23458 whole entry): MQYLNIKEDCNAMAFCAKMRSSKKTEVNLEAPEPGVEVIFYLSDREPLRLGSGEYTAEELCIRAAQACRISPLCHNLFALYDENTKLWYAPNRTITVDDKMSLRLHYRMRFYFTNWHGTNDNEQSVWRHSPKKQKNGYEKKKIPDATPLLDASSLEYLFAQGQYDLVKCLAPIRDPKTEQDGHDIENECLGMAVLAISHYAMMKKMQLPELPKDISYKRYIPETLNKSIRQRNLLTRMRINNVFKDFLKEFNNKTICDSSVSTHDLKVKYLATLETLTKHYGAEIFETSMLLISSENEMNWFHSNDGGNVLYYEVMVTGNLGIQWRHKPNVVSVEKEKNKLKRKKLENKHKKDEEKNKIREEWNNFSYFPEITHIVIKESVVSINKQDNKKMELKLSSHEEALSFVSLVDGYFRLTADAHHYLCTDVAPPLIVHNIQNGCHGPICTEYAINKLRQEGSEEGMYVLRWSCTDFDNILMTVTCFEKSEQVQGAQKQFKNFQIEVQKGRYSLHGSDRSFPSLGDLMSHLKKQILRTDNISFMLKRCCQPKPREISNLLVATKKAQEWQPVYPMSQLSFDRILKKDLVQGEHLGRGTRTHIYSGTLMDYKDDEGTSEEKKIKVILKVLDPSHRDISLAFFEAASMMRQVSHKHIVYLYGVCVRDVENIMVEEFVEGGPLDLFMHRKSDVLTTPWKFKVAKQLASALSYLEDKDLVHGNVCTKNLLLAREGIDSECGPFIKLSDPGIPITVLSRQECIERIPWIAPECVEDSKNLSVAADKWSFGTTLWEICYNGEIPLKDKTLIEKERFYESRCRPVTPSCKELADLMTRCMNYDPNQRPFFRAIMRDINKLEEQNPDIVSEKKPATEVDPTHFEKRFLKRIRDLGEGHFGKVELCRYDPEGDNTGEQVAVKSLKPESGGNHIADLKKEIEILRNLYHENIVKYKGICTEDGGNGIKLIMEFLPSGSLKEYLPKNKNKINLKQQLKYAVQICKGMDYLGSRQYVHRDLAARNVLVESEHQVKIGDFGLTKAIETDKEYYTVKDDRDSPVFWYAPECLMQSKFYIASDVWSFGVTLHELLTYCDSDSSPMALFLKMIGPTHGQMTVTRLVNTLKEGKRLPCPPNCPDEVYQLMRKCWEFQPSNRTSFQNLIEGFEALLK
Experiment summary: In vitro JAK kinase inhibition assay (ADP-Glo), JAK1
Assay conditions: 30 μM ATP, peptide IRS-1, averaged
Endpoint: log10(IC50) (log10 of the value in nM)
Values are log10 of IC50 in nM.

COc1ncc(-c2cc3ncc(C(N)=O)c(N[C@@H]4CCN(c5ccc(C#N)nn5)CC4(C)C)n3n2)cn1 : 0.93
CCOc1ncc(-c2cc3ncc(C(N)=O)c(N[C@@H]4CCN(c5ccc(C#N)nn5)CC4(C)C)n3n2)cn1 : 1.68

stdin: Form entry - test system: Recombinant kinase JAK1 (Homo sapiens (Human)); read-out: log10(IC50); molecule: `CCOc1ccc(-c2cc3ncc(C(N)=O)c(N[C@@H]4CCN(c5ccc(C#N)nn5)CC4(C)C)n3n2)cn1`
stdout: 0.91

stdin: // query: `CC1(C)CN(c2ccc(C#N)nn2)CC[C@H]1Nc1c(C(N)=O)cnc2cc(-c3ccc(N4CCOCC4)nc3)nn12`
stdout: -0.12

stdin: // query: `CC1(C)CN(c2ccc(C#N)nn2)CC[C@H]1Nc1c(C(N)=O)cnc2cc(-c3ccc(N)nc3)nn12`
stdout: -0.42

stdin: // query: `Cc1cc(-c2cc3ncc(C(N)=O)c(N[C@@H]4CCN(c5ccc(C#N)nn5)CC4(C)C)n3n2)ccn1`
stdout: -0.29

---

Assayed target: Recombinant kinase JAK3 (Homo sapiens (Human))
Sequence (P52333 whole entry): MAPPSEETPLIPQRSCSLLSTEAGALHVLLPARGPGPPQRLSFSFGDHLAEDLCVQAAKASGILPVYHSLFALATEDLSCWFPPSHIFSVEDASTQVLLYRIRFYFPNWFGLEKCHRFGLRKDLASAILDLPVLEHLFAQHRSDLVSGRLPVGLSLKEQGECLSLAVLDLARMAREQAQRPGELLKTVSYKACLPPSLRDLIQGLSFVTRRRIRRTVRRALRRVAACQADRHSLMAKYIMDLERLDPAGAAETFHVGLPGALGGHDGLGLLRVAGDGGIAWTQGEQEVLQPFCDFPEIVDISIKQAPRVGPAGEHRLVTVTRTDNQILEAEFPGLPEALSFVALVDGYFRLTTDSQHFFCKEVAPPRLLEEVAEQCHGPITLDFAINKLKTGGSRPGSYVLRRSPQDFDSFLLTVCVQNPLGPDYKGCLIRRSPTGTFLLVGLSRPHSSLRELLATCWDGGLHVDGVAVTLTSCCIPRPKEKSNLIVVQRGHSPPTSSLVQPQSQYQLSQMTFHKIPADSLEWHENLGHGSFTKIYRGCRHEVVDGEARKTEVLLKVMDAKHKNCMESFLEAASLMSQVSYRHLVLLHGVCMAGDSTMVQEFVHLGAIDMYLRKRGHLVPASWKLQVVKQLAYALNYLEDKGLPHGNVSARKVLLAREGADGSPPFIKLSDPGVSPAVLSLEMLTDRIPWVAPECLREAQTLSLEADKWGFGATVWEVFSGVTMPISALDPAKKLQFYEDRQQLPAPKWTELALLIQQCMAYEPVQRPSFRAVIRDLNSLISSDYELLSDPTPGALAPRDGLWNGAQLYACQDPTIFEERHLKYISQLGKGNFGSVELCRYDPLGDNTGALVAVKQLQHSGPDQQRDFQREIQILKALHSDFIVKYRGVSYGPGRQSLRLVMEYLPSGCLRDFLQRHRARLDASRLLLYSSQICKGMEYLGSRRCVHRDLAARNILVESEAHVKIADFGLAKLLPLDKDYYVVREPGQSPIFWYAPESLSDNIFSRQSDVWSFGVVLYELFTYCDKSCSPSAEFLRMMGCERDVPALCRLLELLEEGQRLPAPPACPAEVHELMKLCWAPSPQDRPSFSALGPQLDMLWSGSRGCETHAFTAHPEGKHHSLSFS
Experiment summary: In vitro JAK kinase inhibition assay (ADP-Glo), JAK3
Assay conditions: 30 μM ATP, peptide IGF-1Rtide, averaged
pIC50 overview
Answer as the number alone; pIC50 is minus log10 of concentration in mol/L.

Below: 2 compounds and their reported pIC50.
CCOc1ncc(-c2cc3ncc(C(N)=O)c(N[C@@H]4CCN(c5ccc(C#N)nn5)CC4(C)C)n3n2)cn1 : 7.73
COc1ccc(F)c(-c2cc3ncc(C(N)=O)c(N[C@@H]4CCN(c5ccc(C#N)nn5)CC4(C)C)n3n2)c1 : 8.42

stdin: // returns reported pIC50 for input `Cc1cc(-c2cc3ncc(C(N)=O)c(N[C@@H]4CCN(c5ccc(C#N)nn5)CC4(C)C)n3n2)ccn1`
stdout: 9.54

stdin: // query: `CC1(C)CN(c2ccc(C#N)nn2)CC[C@H]1Nc1c(C(N)=O)cnc2cc(-c3cccnc3)nn12`
stdout: 8.80

---

Assayed target: Recombinant kinase JAK2 (Homo sapiens (Human), UniProt O60674)
Sequence (O60674 whole entry): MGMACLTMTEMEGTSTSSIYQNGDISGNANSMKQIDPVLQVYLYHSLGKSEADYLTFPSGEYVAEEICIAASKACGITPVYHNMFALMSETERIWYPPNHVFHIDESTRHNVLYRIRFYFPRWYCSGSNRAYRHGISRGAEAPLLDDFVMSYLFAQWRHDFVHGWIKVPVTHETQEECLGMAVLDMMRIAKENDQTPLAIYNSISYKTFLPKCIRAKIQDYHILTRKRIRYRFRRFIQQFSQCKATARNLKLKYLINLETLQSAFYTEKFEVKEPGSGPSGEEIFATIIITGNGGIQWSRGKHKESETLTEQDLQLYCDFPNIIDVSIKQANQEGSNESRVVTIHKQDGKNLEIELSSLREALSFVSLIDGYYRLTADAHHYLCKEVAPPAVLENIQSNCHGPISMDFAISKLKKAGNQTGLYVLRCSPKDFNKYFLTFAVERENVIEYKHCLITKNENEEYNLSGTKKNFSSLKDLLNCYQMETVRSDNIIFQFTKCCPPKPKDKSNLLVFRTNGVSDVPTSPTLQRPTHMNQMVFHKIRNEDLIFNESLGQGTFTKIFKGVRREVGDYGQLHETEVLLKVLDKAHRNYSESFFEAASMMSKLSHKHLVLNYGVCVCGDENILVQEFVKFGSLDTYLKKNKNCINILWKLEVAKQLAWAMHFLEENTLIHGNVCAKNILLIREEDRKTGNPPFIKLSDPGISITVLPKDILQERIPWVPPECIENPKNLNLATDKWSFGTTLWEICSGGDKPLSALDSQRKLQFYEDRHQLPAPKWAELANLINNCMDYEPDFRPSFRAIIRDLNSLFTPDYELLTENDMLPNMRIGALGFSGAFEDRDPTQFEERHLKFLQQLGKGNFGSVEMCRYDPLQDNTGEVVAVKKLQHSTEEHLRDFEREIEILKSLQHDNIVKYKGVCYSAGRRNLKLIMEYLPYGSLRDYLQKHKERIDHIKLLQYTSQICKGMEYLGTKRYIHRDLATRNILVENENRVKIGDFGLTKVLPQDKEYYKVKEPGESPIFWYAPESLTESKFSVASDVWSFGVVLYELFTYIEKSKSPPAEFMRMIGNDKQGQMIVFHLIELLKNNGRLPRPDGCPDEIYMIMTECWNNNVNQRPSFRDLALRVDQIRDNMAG
Experiment summary: In vitro JAK kinase inhibition assay (ADP-Glo), JAK2
Assay conditions: 30 μM ATP, peptide IGF-1Rtide, averaged
pIC50: −log10 of the molar value.
Values of pIC50 greater than or equal to 8 map to class 1; values below map to class 0.

Cc1cc(-c2cc3ncc(C(N)=O)c(N[C@@H]4CCN(c5ccc(C#N)nn5)CC4(C)C)n3n2)ccn1 [Example 12] : class 1
COc1ccc(F)c(-c2cc3ncc(C(N)=O)c(N[C@@H]4CCN(c5ccc(C#N)nn5)CC4(C)C)n3n2)c1 [Example 2] : class 0

stdin: In plain terms: is recorded pIC50 at least 8 for CC1(C)CN(c2ccc(C#N)nn2)CC[C@H]1Nc1c(C(N)=O)cnc2cc(-c3ccc(N4CCOCC4)nc3)nn12 [Example 7] ?
stdout: class 1

stdin: // query: CCOc1ccc(-c2cc3ncc(C(N)=O)c(N[C@@H]4CCN(c5ccc(C#N)nn5)CC4(C)C)n3n2)cn1 [Example 5]
stdout: class 0

stdin: // query: COc1ccc(-c2cc3ncc(C(N)=O)c(N[C@@H]4CCN(c5ccc(C#N)nn5)CC4(C)C)n3n2)cc1 [Example 1]
stdout: class 0

stdin: // query: COc1cccc(-c2cc3ncc(C(N)=O)c(N[C@@H]4CCN(c5ccc(C#N)nn5)CC4(C)C)n3n2)n1 [Example 11]
stdout: class 1

stdin: // query: CC1(C)CN(c2ccc(C#N)nn2)CC[C@H]1Nc1c(C(N)=O)cnc2cc(-c3ccc(N)nc3)nn12 [Example 6]
stdout: class 1

---

Assayed target: Recombinant kinase JAK3 (Homo sapiens (Human))
Experiment summary: In vitro JAK kinase inhibition assay (ADP-Glo), JAK3
Assay conditions: 30 μM ATP, peptide IGF-1Rtide, averaged
IC50 overview
Value expressed in nM; do not type the unit.

COc1ccc(-c2cc3ncc(C(N)=O)c(N[C@@H]4CCN(c5ccc(C#N)nn5)CC4(C)C)n3n2)cc1 : 1.2
CC1(C)CN(c2ccc(C#N)nn2)CC[C@H]1Nc1c(C(N)=O)cnc2cc(-c3ccc(N4CCOCC4)nc3)nn12 : 0.19
COc1ccc(-c2cc3ncc(C(N)=O)c(N[C@@H]4CCN(c5ccc(C#N)nn5)CC4(C)C)n3n2)cn1 : 2.67
CCOc1ccc(-c2cc3ncc(C(N)=O)c(N[C@@H]4CCN(c5ccc(C#N)nn5)CC4(C)C)n3n2)cn1 : 1.8

Here is the next item to consider.
stdin: // returns reported IC50 for input `COc1cccc(-c2cc3ncc(C(N)=O)c(N[C@@H]4CCN(c5ccc(C#N)nn5)CC4(C)C)n3n2)n1`
stdout: 0.03

---

inhibition at 0.1 µM overview
Test system: TNFα secreted by lymphocytes T
Experiment summary: Inhibition of TNFα production by lymphocytes T in vitro
Format: cell-based
Assay conditions: Lymphocyte; 100 nM, 48 hours, human CD4+ lymphocytes T
Value expressed in %; do not type the unit.

Below: 2 compounds and their reported inhibition at 0.1 µM.
Cc1cc(-c2cc3ncc(C(N)=O)c(N[C@@H]4CCN(c5ccc(C#N)nn5)CC4(C)C)n3n2)ccn1 : 75.8
CC1(C)CN(c2ccc(C#N)nn2)CC[C@H]1Nc1c(C(N)=O)cnc2cc(-c3ccc(N4CCOCC4)nc3)nn12 : 76

stdin: // returns reported inhibition at 0.1 µM for input `COc1ccc(-c2cc3ncc(C(N)=O)c(N[C@@H]4CCN(c5ccc(C#N)nn5)CC4(C)C)n3n2)cn1`
stdout: 78.7

stdin: // query: `COc1cccc(-c2cc3ncc(C(N)=O)c(N[C@@H]4CCN(c5ccc(C#N)nn5)CC4(C)C)n3n2)n1`
stdout: 88.1
